- Test system: BT-549 breast
- TEST: NCI tumour cell line growth inhibition, 48 h
METRIC: TGI

Examples with their reported TGI follow.
O=C1CC(=O)c2c(N3CCCC3)sc(N3CCCC3)c21 ... > 100 µM
Clc1ccc(-c2nc3ccc(Cl)cc3[nH]2)cc1 ... > 100 µM
CN(C)CCNC(=O)c1cccc2nc3c(ccc4ccccc43)nc12 ... 22.8 µM
C=C1C(O)C2C(=C(CC(C)C)C13CC3)C(=O)C(C)(C)C2O (centres undefined) ... > 100 µM
Cc1cc(=O)[nH]c(-n2[nH]c3c(c2=O)CCCC3)n1 ... > 100 µM
O=C(O)/C(=C/c1ccccc1)c1ccccc1 ... > 100 µM
CC[C@@]1(O)C(=O)OCc2c1cc1n(c2=O)Cc2c-1nc1ccccc1c2/C=N/NC(=O)C[N+](C)(C)C ... > 100 µM
CN(C)c1ccc(C2C(Cl)C(=O)N2NC(=O)c2c(Cl)c(Cl)c(Cl)c(Cl)c2-c2nc3ccccc3[nH]2)cc1 (centres undefined) ... 33.2 µM

Give one value of TGI per listed compound.
1. COc1cccc2c1C(=O)c1c(O)c3c(c(O)c1C2=O)C[C@@](O)(C(=O)CO)C[C@@H]3OC1CC(N(C)C)C(O)C(C)O1 (some centres undefined)
2. COC(=O)N/N=C(/CC1(O)C(=O)Nc2ccc([N+](=O)[O-])cc21)c1ccccc1 (centres undefined)
3. CC(C)(C)OC(=O)NCC(=O)NC1CC=CCC1NC(=O)CNC(=O)OC(C)(C)C (centres undefined)
4. CCN(Cc1cc(F)cc(F)c1)c1ccc(CO)c(Cl)c1
5. CN(C)/C=N/S(=O)(=O)c1nn2c(C=O)c(-c3ccccc3)nc2s1
6. C1CSC2=C(S1)SC1=C(S2)SC(=C2SC3=C(SC4=C(SCCS4)S3)S2)S1
7. CN(C)CCCNc1nc2ccccc2c2c(=O)c3cc(F)ccc3sc12

["0.556 µM", "92.3 µM", "> 100 µM", "29.1 µM", "> 26.4 µM", "> 100 µM", "22.9 µM"]

Give one value of TGI per listed compound.
1. CC1(C)COC(c2ccccc2-c2ccccc2)=N1
2. COc1ccc(/C=C/C(=O)c2c(O)c(C)c(O)c3c2OC2=CC(O)=C(C(C)=O)C(=O)[C@]23C)cc1
3. C#CCCOC(=O)CC1=C(C)/C(=C/c2ccc(S(C)=O)cc2)c2ccc(F)cc21 (centres undefined)
4. COc1cc(Nc2ncc3c(C)nc(-c4cccc(C(F)(F)F)c4)n3n2)cc(OC)c1OC
5. CCC(=O)OCC1OC(n2cnc3c(=S)nc(N)[nH]c32)C(OC(=O)CC)C1OC(=O)CC (centres undefined)

1. > 100 µM
2. 5.26 µM
3. 30.5 µM
4. 8.03 µM
5. > 100 µM

Give one value of TGI per listed compound.
1. CNc1ccccc1S(=O)(=O)c1ccccc1[N+](=O)[O-]
2. Cc1ccc(N(CC(=O)Nc2ccc(S(=O)(=O)NC3CCN(C)CC3)cc2)S(=O)(=O)c2ccc(Cl)cc2)cc1
3. CC1(C)OC(C(C)(C)O)C(C(C)(C)O)O1 (centres undefined)
4. COc1ccccc1/C=C/C(=O)c1ccc(Nc2nc(Nc3ccc(F)cc3)nc(Nc3ccc(F)cc3)n2)cc1

65.3 µM
27.8 µM
> 100 µM
> 100 µM

====

- Test system: PC-3 prostate
- TEST: NCI tumour cell line growth inhibition, 48 h
Can you tell me TGI for the items I'm about to list?
Numbers only, in µM.

O=[N+]([O-])c1cc([N+](=O)[O-])c(NN=C(c2ccc(O)cc2)c2ccc(O)cc2)cc1Cl ... 2.33
CO[C@H]1/C=C/[C@@](C)(O)/C=C/C(=O)O[C@H](C)[C@@H](C)CC/C=C/1C ... 53.7

Continue with the compound presented below.
Given the entry FC(F)(F)c1ccc2c(c1)nc(-c1ccccc1)n2CC1CCCN2CCCCC12 (configuration not stated) , report its measured TGI. 34.1

====

Can you tell me TGI for the items I'm about to list?
- Test system: HCC-2998 colon
- TEST: NCI tumour cell line growth inhibition, 48 h
*1 amine or outer side, *2 acyl side, *3 side chain or, on linkers, in order; H or OH if unused. Where a SMILES comes first, the peptide text is derived from it. [ ]: non-standard residue; d: D form. The star is where a group is joined. ξ: configuration not given here. X53 = CC(C)C[C@H](N[*:1])C1=N[C@H](C(=O)[*:2])CS1; Ile(3ξ) = CCC(C)[C@H](N)C(=O)O; Allyl(1,1-Me2) = C=CC(C)(C)*

Examples with their reported TGI follow.
C=C(C)[C@@H]1/C=C(/C(C)C)CC[C@@]2(C)OC2CC[C@H](C)CC1=O (some centres undefined) ... > 65.9 µM
O=C(O)Cc1cc(F)ccc1C(=O)O ... > 100 µM
COC(=O)/C(C#N)=C1\CCC(OC)N1 (centres undefined) ... > 100 µM
COC(=O)[C@@H]1CCc2nc3ccccc3c(=O)n21 ... > 100 µM
C=CC(C)(C)OC[C@@H]1NC(=O)CNC(=O)[C@@H]2CCCN2C(=O)[C@H](C(C)CC)NC(=O)[C@@H]2CSC(=N2)[C@H](CC(C)C)NC1=O (some centres undefined) (cyclo(GS(Allyl(1,1-Me2))[X53][Ile(3ξ)]P)) ... > 100 µM

Give one value of TGI per listed molecule.
1. C(=N\c1cc2cc(Sc3ccccc3)ccc2[nH]1)/c1ccccc1
2. Cc1ccc(S(=O)(=O)OCC23CCC(C2)C2CC23)cc1 (centres undefined)
3. COc1ccc(Cc2nccc3cc(OC)c(OC)cc23)cc1
4. CC(C)NC(=O)OCc1c(COC(=O)NC(C)C)c(-c2cc[n+](COC(=O)CC(C)(C)C)cc2)n2c1CCC2

["> 12.5 µM", "> 100 µM", "> 100 µM", "> 100 µM"]

====

- Test system: ACHN renal
- TEST: NCI tumour cell line growth inhibition, 48 h
Can you tell me TGI for the items I'm about to list?

Examples with their reported TGI follow.
C[Si](C)(C)CNC(=O)OCc1ccccc1 ... > 100 µM
Cc1cn(CC2=NCC(O)CN2)c(=O)[nH]c1=O (stereo not drawn) ... > 100 µM

Continue with the compound presented below.
Given the entry C=C1C(O)C2C(=C(CC(C)C)C13CC3)C(=O)C(C)(C)C2O (stereo not drawn) , report its measured TGI. > 100 µM

====

Can you tell me TGI for the items I'm about to list?
- Tested on: COLO 205 colon
- TEST: NCI tumour cell line growth inhibition, 48 h

O=C(Nc1ccn(C2CCC(CO)O2)c(=O)n1)c1ccccc1 (centres undefined) ... > 100 µM

Give one value of TGI per listed compound.
1. COc1cccc2c1C(=O)c1c(O)c3c(c(O)c1C2=O)C[C@@](O)(C(=O)CO)C[C@@H]3OC1CC(N(C)C)C(O)C(C)O1 (some centres undefined)
2. O=C1c2ccc3c4ccc5c6c(ccc(c7ccc(c2c37)C(=O)N1CCN1CCCCC1)c64)C(=O)N(CCN1CCCCC1)C5=O
3. CC1=C(C)C(=O)C(C2=C(C3=CC(=O)C(C)=C(C)C3=O)C(=O)C(C)=C(C)C2=O)=CC1=O

0.0186 µM
> 100 µM
8.07 µM

Give one value of TGI per listed compound.
1. O=C1c2ccccc2C(=O)N1[C@@H](Cc1ccccc1)C(=O)n1cccc1CO
2. C=CCN1C(=O)CNC1=S
3. O=C1c2cccc3cc4ccccc4c(c23)C(=O)N1CCNCCN1C(=O)c2cccc3cc4ccccc4c(c23)C1=O
4. CN(C)C1C(CO)OC(n2cnc3c(N)ncnc32)C1O (centres undefined)

["> 100 µM", "> 100 µM", "2.22 µM", "> 100 µM"]

Give one value of TGI per listed compound.
1. O=C1CC(=O)c2c(N3CCCC3)sc(N3CCCC3)c21
2. Cn1c(C2CCCc3c2c2ccccc2n3C)cc2ccccc21 (centres undefined)
3. CCC1(O)C(=O)OCc2c1cc1n(c2=O)Cc2cc3cc(OC)c(OC)cc3nc2-1 (centres undefined)
4. Nc1cnc(Nc2cccc3ccccc23)o1

["> 100 µM", "> 318 µM", "> 100 µM", "> 10 µM"]

Give one value of TGI per listed compound.
1. CCOc1cc(NC(C)=O)ccc1C(=O)NNS(=O)(=O)c1ccc(Cl)cc1Cl
2. CC(C)NC(=O)OCc1c(COC(=O)NC(C)C)c(-c2cc[n+](COC(=O)CC(C)(C)C)cc2)n2c1CCC2
3. c1ccc(COC2NCCN2Cc2ccccc2)cc1 (centres undefined)
4. COc1cc(Nc2ncc3c(C)nc(-c4cccc(C(F)(F)F)c4)n3n2)cc(OC)c1OC
5. CN(c1ccc(Cl)c(Cl)c1)c1cnc2cc(N)cc(N)c2n1
6. Cc1ccc(O)c(-c2cc(-c3cccc(Br)c3)c(C#N)c(N)n2)c1
7. COc1cc(Nc2cc(O)c3c(=O)cc(-c4ccccc4)oc3c2)cc(OC)c1

["> 50 µM", "> 100 µM", "> 100 µM", "7.49 µM", "3.47 µM", "34.2 µM", "> 100 µM"]
